B1: library; numbered along this chain (parent)
chain: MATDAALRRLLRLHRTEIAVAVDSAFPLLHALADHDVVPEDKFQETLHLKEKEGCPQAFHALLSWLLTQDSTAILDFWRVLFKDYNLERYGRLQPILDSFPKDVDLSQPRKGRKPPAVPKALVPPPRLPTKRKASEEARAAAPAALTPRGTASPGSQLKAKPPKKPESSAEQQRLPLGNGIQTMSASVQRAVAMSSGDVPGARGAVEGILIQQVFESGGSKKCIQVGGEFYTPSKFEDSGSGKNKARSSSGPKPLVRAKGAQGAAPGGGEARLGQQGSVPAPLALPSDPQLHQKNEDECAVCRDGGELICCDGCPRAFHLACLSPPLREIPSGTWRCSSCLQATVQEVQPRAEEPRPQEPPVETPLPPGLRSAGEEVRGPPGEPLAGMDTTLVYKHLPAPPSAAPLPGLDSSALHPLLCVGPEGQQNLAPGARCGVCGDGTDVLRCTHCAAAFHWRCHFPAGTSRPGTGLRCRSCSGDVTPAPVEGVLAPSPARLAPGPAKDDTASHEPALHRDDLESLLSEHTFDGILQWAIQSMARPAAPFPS

Variants of: B1
Assay: AIRE transcriptional activation functional score (insulin promoter-GFP; nonsense median 0, synonymous median 1) (normalised score); higher = higher AIRE activity (more reporter activation)
Details: with insulin promoter-GFP reporter in HEK293
Classification by AIRE transcriptional activation functional score | ranges: bucket 1: < 0.8; bucket 2: ≥ 0.8 and < 1; bucket 3: ≥ 1

Lookup: Just checking, what class would you give `E45W` here?
Found: bucket 3
